experiment: Evaluation of solubility of acid generator in PGMEA; conditions: maximal concentration dissolved in propylene glycol monomethyl ether acetate (PGMEA)
measured_parameter: Solvent solubility of acid generator (% by mass)

CCCCC(Oc1cc2c3c(cccc3c1)C(=O)N(OS(=O)(=O)C(F)(F)C(=O)OC)C2=O)C(=O)O (stereo not shown)
10

1 = CCCCC(Oc1cc2c3c(cccc3c1)C(=O)N(OS(=O)(=O)C(F)(F)C(=O)OCCC1CCCCC1)C2=O)C(=O)OC(C)(C)C (stereo not shown)
2 = COC(=O)C(F)(F)S(=O)(=O)ON1C(=O)c2cc(C(C)C)cc3ccc(C(C)C)c(c23)C1=O
Hi, I'm comparing 1 with 2 and wondering which one has the bigger number for Solvent solubility of acid generator. Any idea? Return value: the label identifying the chosen record.
1
